- testDetails: in vivo
- setupConditions: male, New Zealand albino, rabbit, plasma, inhaled or intranasal, 3 mg/kg
Where a name gives a salt, the structure may show the parent alone.
measurementKind: AUC(0-t)

Look up AUC(0-t) for this molecule: CN(C)CCC=C1c2ccccc2C=Cc2ccccc21 [Cyclobenzaprine, hydrochloride]
54.6 ng·h/mL

---

- testDetails: in vivo
- setupConditions: male, New Zealand albino, rabbit, plasma, inhaled or intranasal, 3 mg/kg
Where a name gives a salt, the structure may show the parent alone.
measurementKind: AUC(0-inf)
Answer with the number, then the unit.

Look up AUC(0-inf) for this compound: CN(C)CCC=C1c2ccccc2C=Cc2ccccc21 [Cyclobenzaprine, hydrochloride]
65.6 ng·h/mL

---

- testDetails: in vivo
- setupConditions: male, New Zealand albino, rabbit, plasma, po, 1.5 mg/kg
Counter-ions that a name gives are not always drawn.
measurementKind: Cmax (ng/mL)
Report the value in ng/mL with no unit label.

Look up Cmax for this compound: CN(C)CCC=C1c2ccccc2C=Cc2ccccc21 [Cyclobenzaprine, hydrochloride]
1.28

---

- testDetails: in vivo
- setupConditions: male, New Zealand albino, rabbit, plasma, inhaled or intranasal, 3 mg/kg
Counter-ions that a name gives are not always drawn.
measurementKind: Tmax (min)
Report the value in min with no unit label.

Look up Tmax for this compound: CN(C)CCC=C1c2ccccc2C=Cc2ccccc21 [Cyclobenzaprine, hydrochloride]
30

---

- testDetails: in vivo
- setupConditions: male, New Zealand albino, rabbit, plasma, inhaled or intranasal, 1.5 mg/kg
Where a name gives a salt, the structure may show the parent alone.
measurementKind: Cmax (ng/mL)
Report the value in ng/mL with no unit label.

Look up Cmax for this compound: CN(C)CCC=C1c2ccccc2C=Cc2ccccc21 [Cyclobenzaprine, hydrochloride]
69.3

---

- testDetails: in vivo
- setupConditions: male, New Zealand albino, rabbit, plasma, inhaled or intranasal, 3 mg/kg
Structures can show the parent of a compound that is named as a salt.
measurementKind: half-life (h)
Report the value in h with no unit label.

Look up half-life for this molecule: CN(C)CCC=C1c2ccccc2C=Cc2ccccc21 [Cyclobenzaprine, hydrochloride]
1.56

---

- testDetails: in vivo
- setupConditions: male, New Zealand albino, rabbit, plasma, inhaled or intranasal, 1.5 mg/kg
Where a name gives a salt, the structure may show the parent alone.
measurementKind: AUC(0-inf) (ng·h/mL)
Report the value in ng·h/mL with no unit label.

Look up AUC(0-inf) for this compound: CN(C)CCC=C1c2ccccc2C=Cc2ccccc21 [Cyclobenzaprine, hydrochloride]
65.8

---

- testDetails: in vivo
- setupConditions: male, New Zealand albino, rabbit, plasma, po, 1.5 mg/kg
Counter-ions that a name gives are not always drawn.
measurementKind: AUC(0-t) (ng·h/mL)
Report the value in ng·h/mL with no unit label.

Look up AUC(0-t) for this compound: CN(C)CCC=C1c2ccccc2C=Cc2ccccc21 [Cyclobenzaprine, hydrochloride]
2.08
